Target: IctP (PA0884) (Pseudomonas aeruginosa)
Construct: SBP domain (pa0884), recombinant from E. coli
Sequence (Q9I561 entry or part of it): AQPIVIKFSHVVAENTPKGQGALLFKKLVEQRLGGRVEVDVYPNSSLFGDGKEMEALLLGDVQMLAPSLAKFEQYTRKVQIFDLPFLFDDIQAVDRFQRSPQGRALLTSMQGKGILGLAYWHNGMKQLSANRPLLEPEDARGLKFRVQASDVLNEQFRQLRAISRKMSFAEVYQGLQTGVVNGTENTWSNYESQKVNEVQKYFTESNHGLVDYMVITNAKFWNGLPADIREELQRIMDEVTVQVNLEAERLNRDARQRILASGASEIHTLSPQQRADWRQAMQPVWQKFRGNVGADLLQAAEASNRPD
Assay: intrinsic tryptophan fluorescence titration
Format: binding
property measured: pKd
# pKd: negative log10 of molar concentration; output just the value

Lookup: // query pKd value for entry O=C(O)C[C@H](O)C(=O)O [L-malate]
Found: 4.79

---

Molecular target: IctP (PA0884) (Pseudomonas aeruginosa)
Construct: SBP domain (pa0884), recombinant from E. coli
Experiment: crystal structure ([…] Å); intrinsic tryptophan fluorescence titration; nanoDSF (~[…] °C shift)
Format: binding
property measured: pKd
# pKd: negative log10 of molar concentration; output just the value

Lookup: // query pKd value for entry C=C(CC(=O)O)C(=O)O [itaconate, 2-methylenesuccinate]
Found: 3.75

The values you see were collected from paper PMC12599236.
